B1: wild type GSI motif peptide (CPRPLKEGSITQGTPLKYDTG), SMRT amino acids 1450-1469 with an amino-terminal cysteine [modified: BODIPY-TMR coupled to the N-terminal cysteine; BODIPY-TMR coupled to the N-terminal cysteine] [not stated] / HDAC4 … (parent complex)
chain 1: CPRPLKEGSITQGTPLKYDTG
chain 2: TKPRFTTGLVYDTLMLKHQCTCGSSSSHPEHAGRIQSIWSRLQETGLRGKCECIRGRKATLEELQTVHSEAHTLLYGTNPLNRQKLDSKKLLGSLASVFVRLPCGGVGVDSDTIWNEVHSAGAARLAVGCVVELVFKVATGELKNGFAVVRPPGHHAEESTPMGFCYFNSVAVAAKLLQQRLSVSKILIVDWDVHHGNGTQQAFYSDPSVLYMSLHRYDDGNFFPGSGAPDEVGTGPGVGFNVNMAFTGGLDPPMGDAEYLAAFRTVVMPIASEFAPDVVLVSSGFDAVEGHPTPLGGYNLSARCFGYLTKQLMGLAGGRIVLALEGGHDLTAICDASEACVSALLGNELDPLPEKVLQQRPNANAVRSMEKVMEIHSKYWRCLQRTTSTAGRSLIEAQTCENEEAETVT

Variants of: B1
Test: fluorescence anisotropy
Mark criterion met for Kd under 10 µM, criterion not met if at or over.

// known answers, use as guide
Sequence Text | Class
chain 1 CPRPLKEGSITEGTPLKYDTG [chain 1 Q12E] | criterion not met
chain 1 CPRPLKEGSITAGTPLKYDTG [chain 1 Q12A] | criterion met
chain 1 CPRPLKEGSITQGTALKYDTG [chain 1 P15A] | criterion not met
chain 1 CPRPLKEGSIAQGTPLKYDTG [chain 1 T11A] | criterion not met

### Prompt Quick check: Kd of chain 1 CPRPLKEGSIVQGTPLKYDTG [chain 1 T11V] under 10 µM?
### Response criterion not met

Reference for the values: paper PMC4505066
